Recorded values, source ChEMBL document CHEMBL3779892.

Record form. Attribute: inhibition of growth at 10 µM. Fill in for each entry.
test system: SK-MEL-5; assay: Growth inhibition of human SK-MEL-5 cells at 10 uM after 48 hrs by sulforhodamine B assay; assay type: functional; details: SK-MEL-5, 48 h, read-out: GI

>>> result("COc1ccc(Cc2nnc(Nc3ccc(Cl)cc3)c3ccccc23)cc1")
"35%"
>>> result("COc1ccc(Cc2nnc(Nc3ccc(NC(=O)Nc4cccc(C(F)(F)F)c4)cc3)c3ccccc23)cc1")
"< 30%"
>>> result("COc1ccc(Cc2nnc(Nc3cccc(Cl)c3)c3ccccc23)cc1")
"< 30%"
>>> result("COc1ccc(Cc2nnc(Nc3ccc(NC(=O)Nc4ccc(C#N)cc4)cc3)c3ccccc23)cc1")
"< 33%"
>>> result("COc1ccc(Cc2nnc(Nc3ccc(NC(=O)Nc4ccccc4Cl)cc3)c3ccccc23)cc1")
"< 30%"

Provide the reported inhibition of growth at 10 µM of each entry below, same order.
1. COc1ccc(Cc2nnc(Nc3ccc(NC(=O)Nc4ccc(Cl)c(C(F)(F)F)c4)cc3)c3ccccc23)cc1
2. COc1ccc(Cc2nnc(Nc3cccc(OC)c3)c3ccccc23)cc1

Result:
["36%", "< 30%"]
